- TEST TARGET: SARS-CoV-2 spike protein receptor binding domain (RBD) (SARS-CoV-2, UniProt P0DTC2 319-539)
- ASSAY OVERVIEW: ELISA on plate-coated RBD
REPORTED PROPERTY: EC50 (µg/mL)
Just the number please, in µg/mL, no unit attached.

C704 (antibody, V domains shown) VH: VQLVESGGGVVQPGRSLRLSCAASGFTFSRYGMHWVRQAPGKGLEWVAVSSYDGSNEYYANSVKGRFTISRDNSKNTLYLQMNSLRAEDTAVYYCAKTGASYCGGDCPFHFDYWGQGTLVTVSS VL: IRMTQSPSSLSASVGDRVTITCQASQDINNYLNWYQQKPGKAPKLLIYDASDLETGVPSRFSGGGSGTDFTFTISSLQPEDIATYYCQHYNNLPITFGQGTRLEIK: 0.0134

Moving on to another binder below.
Req: Bench note: what EC50 did C567 (antibody, V domains shown) VH: QVQLQESGPGLVKPSETLSLTCTVSGGSVINGSYYWSWIRQPPGKGLEWIGFVYYSGSTNYNPSLKSRVTISVDTSKNQFSLNLNSVTAADTAVYYCATGSKSSYYFDYWGQGTLVTVSS VL: QSVLTQPPSVSAAPGQKVTISCSGSSSNIGNNYVSWYQQLPGAAPKLLIYENNMRPSGIPDRFSGSKSGTSATLGITGLQTGDEADYYCGTWDSSLSVPYVFGTGTRVTVL show?
Resp: 0.0189
